Molecular target: T1, Fr
T1 construct: also called hFc-hROR1-Fr
T1 sequence (chain, as listed by the source limits assumed): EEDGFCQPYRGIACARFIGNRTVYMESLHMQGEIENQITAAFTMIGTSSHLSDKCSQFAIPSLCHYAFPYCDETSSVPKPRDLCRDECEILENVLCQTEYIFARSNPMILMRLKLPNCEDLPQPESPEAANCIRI
Experiment: ELISA on directly coated hFc fusion proteins of hROR1 domains; anti-His-HRP; A405
Procedure: ELISA: For ELISA (FIG. 2), each well of a 96-well Costar 3690 plate (Corning, Corning, N.Y.) was coated with 100 ng anti-human IgG1 Fc in 25 μL coating buffer (0.1 M Na₂CO₃, 0.1 M NaHCO₃, pH 9.6) for 1 h at 37° C. […] The absorbance was measured at 405 nm using a SpectraMax M5 microplate reader (Molecular Devices; Sunnyvale, Calif.) and SoftMax Pro software (Molecular Devices).
PROPERTY LABEL: binding result

BINDER	PROPERTY LABEL	OBS VALUE
ERR1-316 chimeric rabbit/human Fab (Fab, V domains shown, Chimeric rabbit/human Fab with His tag, expressed in E. coli (pET11a); lambda light chain) VH: QEQLEESGGRLVTPGTPLTLTCTASGFFLSSYYVSWVRQAPGKGLEWIGAIGTGGSAYYASWAKSRSTITRNTNLSTVTLKMTSLTAADTATYFCARDHPNYGMDLWGPGTLVTVSS VL: SYELTQLPSVSVSLGQTARITCGGNSIGSKAVNWYQQKPGLAPGLLIYDDDERPSGVPDRFSGSNSGDTATLTISGAQAGDEADYYCQLWDSSTGAYAFGGGTQLTVTG	binding result	no binding
ERR1-301 chimeric rabbit/human Fab (Fab, V domains shown, Chimeric rabbit/human Fab with His tag, expressed in E. coli (pET11a); lambda light chain) VH: QEQLEESGGGLVTPGGSLTLTCTASGFTISTYHMSWVRQAPGKGLEWIGSIYAGSGSTYYASWVNGRFTISSNTTQNTVSLQMNSLTVADTATYFCARDHPSYGMDLWGPGTLVTVSS VL: SYELTQLPSVSVSLGQTARITCGGNSIGSKAVNWYQQKPGLAPGLLIYDDDERPSGVPDRFSASNSGDTATLTISGAQAEDEADYYCQLWDSSAVAYVFGGGTQLTVTG	binding result	no binding
ERR1-403 chimeric rabbit/human Fab (Fab, V domains shown, Chimeric rabbit/human Fab with His tag, expressed in E. coli (pET11a); lambda light chain) VH: QEQLKESGRGLVQPGGSLKLSCKASGFDFSGWYMTWVRQAPGKGLEWIGTIGTTKGRTYYASWVNGRFTISSNAQNTVDLQMNSLTAADRATYFCVRGSDYFDLWGPGTLVTISS VL: SYELTQLPSVSVSLGQTARITCGGNSIGSKAVNWYQQKPGLAPGLLIYDDDERPSGVPARFSGSNSGDTATLTISGAQAGDEADYYCQLWDSSAGAYVFGGGTQLTVTG	binding result	no binding
